Cited source: patent EP4417602A1

Recorded pre-emergence activity against ECHCG values for a group of molecules are listed next.
System: ECHCG
Test: C. Herbicidal pre-emergence action, weed and crop plants (Tables C)
Type: in vivo, Echinochloa crus-galli
Conditions: application rate 320 g/ha; Table C6a

For record COCc1nn(C)cc1C(=O)N1CCCC1Cc1ccccc1F (racemic) [Example I-002] the listed pre-emergence activity against ECHCG is 90%

The recorded pre-emergence activity against ECHCG for COCc1c(C(=O)N2CCCC2Cc2ccccc2Cl)cnn1C (racemic) [Example I-170] is 90%

pre-emergence activity against ECHCG measured on COCc1nn(C)cc1C(=O)N1CCCC1Cc1ccccc1F (single isomer, unassigned) [Example I-003] = 90%

Looking up COCc1nn(C)cc1C(=O)N1CCCC1C(O)c1ccccc1F (single isomer, unassigned) [Example I-053] , I see its pre-emergence activity against ECHCG listed as 100%
